Read-out record for PI3Kδ (Homo sapiens): IC50

> print(dat)
                                   compound  recorded.value
1  Cc1nc2c(N[C@@H](C)c3cc4cccc(-c5cnn(C)c5)c4c(=O)n3-c3ccccc3)ncnc2s1 [Compound 79]      1 to 10 µM

Which IC50 value belongs to Cc1nc2c(N[C@@H](C)c3cc4cccc(Cl)c4c(=O)n3-c3cccc(F)c3)ncnc2s1 [Compound 78] ? 1 to 10 µM

* * *

Test system: phospho-AKT in SKOV-3 cells
Method Notes: PI3Kα selective cellular assay, phospho-AKT in SKOV-3 cells
Assay type: cell-based
Condition Info: Homo sapiens, SK-OV-3; SKOV-3 cell model; range between 100 nM and 1 μM (bounds carry own units)
Quantity: IC50

Look over these answered cases.
> print(dat)
                                   compound  recorded.value
1  COc1ncc(-c2cccc3cc([C@H](C)Nc4ncnc5scnc45)n(-c4ccon4)c(=O)c23)cn1 [Compound 106]  100 to 1000 nM
2  CC(C)n1c([C@H](C)Nc2ncnc3scnc23)cc2cccc(-c3ccc(=O)n(C)c3)c2c1=O [Compound 103]  100 to 1000 nM

Moving on to the next compound.
Which IC50 value belongs to C[C@H](Nc1ncnc2scnc12)c1cc2cccc(-c3cnn(C)c3)c2c(=O)n1-c1ccccc1 [Compound 5] ? 100 to 1000 nM
